assayed.system: T1, TEM-1 β-lactamase, P62593
T1 chain: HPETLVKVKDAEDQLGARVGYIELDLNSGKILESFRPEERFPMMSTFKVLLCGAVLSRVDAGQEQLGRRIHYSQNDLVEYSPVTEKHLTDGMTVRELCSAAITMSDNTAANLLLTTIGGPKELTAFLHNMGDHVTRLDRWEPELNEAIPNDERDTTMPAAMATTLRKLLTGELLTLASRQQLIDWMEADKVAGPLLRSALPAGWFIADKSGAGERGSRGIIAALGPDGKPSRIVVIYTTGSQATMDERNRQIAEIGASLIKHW
test.protocol: β-lactamase inhibition assay (cephalosporin C), Ki from IC50 by Cheng-Prusoff
No end group written: not given here.
Can you tell me Ki for the items I'm about to list?
Report the value in µM with no unit label.

input: Returns the measured Ki for the input binder. Input: HSAYSDTRRGDYG-NH2 […-NH2]
output: 298

input: Item under review: AAGHYY-NH2 [AAGHYY-NH2] . Reported Ki?
output: 438

input: // lookup Ki for RRGHYY-NH2 [RRGHYY-NH2]
output: 136
